Experiment: LC–MS/MS analysis of in situ SC2S formation (tissue distribution)
Assay type: in vivo, BALB/c mice
Details: BALB/c, mouse, plasma, 2h; individual samples; read-out: Blood Calculated Concentration
Method: The blood, tumour, lung, kidney, liver and spleen were collected for each mouse. Three mice treated with vehicle were included as control samples. Whole blood samples were centrifuged at 2,000g, 4 °C for 10 min. Supernatant plasma was aspirated into an Eppendorf tube and frozen at −80 °C. […] The tissue samples were analysed by homogenization to give a 200 ng ml^−1 homogenate concentration. […] All samples were analysed using the PKB Core Facility’s 6500 LC–MS/MS system, in negative ion mode. […]
recorded.endpoint: concentration at 2 h (ng/mL)
# output: bare number, implied unit ng/mL

Record request: concentration at 2 h value, item COc1cc2sc(C(=O)CCC(=O)O)cc2cc1SCCSc1cc2cc(C(=O)CCC(=O)O)sc2cc1OC [SC2S]
3.03

====

test: Colorimetric alkylation rate constant assay with thiol N1; type: physicochemical; conditions: Replicate 2; time 606 sec; [B]0=250; in µM
Below, each entry is listed with its recorded remaining [B].
# output: bare number, no unit

Reference set, count: 4
> print(dat)
                                   compound  data.value
1  COc1cc2sc(C(=O)CCC(=O)O)cc2cc1NC(=O)CCl [Compound E2]     161.451
2  C=CS(=O)(=O)Nc1cc2cc(C(=O)CCC(=O)O)sc2cc1OC [Compound E1]     176.162
3                      O=C(CCl)Nc1ccc(F)cc1     224.461
4                   O=C(CCl)Nc1ccccc1C(=O)O     232.171

Record request: remaining [B] value, item O=C(CCl)Nc1ccccc1
226.02

# iterate: O=C(CCl)N1CCOCC1
224.008

====

experiment: Colorimetric alkylation rate constant assay with thiol N1; type: physicochemical; settings: Replicate 3; time 576 sec; [B]0=250; in µM
recorded.endpoint: remaining [B]
# output: bare number, no unit

> print(dat)
                             molecule  recorded.endpoint  data.value
1  O=C(CCl)Nc1ccc(F)cc1 [Compound C3]      remaining [B]     225.786
2      O=C(CCl)N1CCOCC1 [Compound C4]      remaining [B]     224.839
3     O=C(CCl)Nc1ccccc1 [Compound C2]      remaining [B]     227.139

Record request: remaining [B] value, item COc1cc2sc(C(=O)CCC(=O)O)cc2cc1NC(=O)CCl [Compound E2]
162.938

# iterate: C=CS(=O)(=O)Nc1cc2cc(C(=O)CCC(=O)O)sc2cc1OC [Compound E1]
183.039

# iterate: O=C(CCl)Nc1ccccc1C(=O)O [Compound C5]
235.444

====

test: LC–MS/MS analysis of in situ SC2S formation (tissue distribution); type: in vivo, BALB/c mice; settings: BALB/c, mouse, tumour, other: β-GlcA-N1 intraperitoneal (IP) + E4 intratumoral (IT), 1h; read-out: Tumour Mean concentration
recorded.endpoint: concentration at 1 h (ng/g)
# output: bare number, implied unit ng/g

Record request: concentration at 1 h value, item COc1cc2sc(C(=O)CCC(=O)O)cc2cc1SCCSc1cc2cc(C(=O)CCC(=O)O)sc2cc1OC [SC2S]
147

The reported measurements were obtained from paper PMC12669040.
